System: U251 CNS
Outcome codes: active, inactive

[
  {
    "compound": "CNc1nc(C)c(-c2nc(Nc3cccc(S(N)(=O)=O)c3)ncc2F)s1",
    "assigned.category": "active"
  },
  {
    "compound": "N#Cc1cccc(C(=O)c2cnn(-c3ccc(F)cc3)c2N)c1",
    "assigned.category": "inactive"
  },
  {
    "compound": "CSc1ccc(-c2cc(-c3ccc(NC(=O)CCCN4CCCC4)cc3)nc(-c3ccc(NC(=O)CCCN4CCCC4)cc3)c2)cc1",
    "assigned.category": "inactive"
  },
  {
    "compound": "CN(C)C(=S)NN=C(c1ccccn1)c1ccccn1",
    "assigned.category": "active"
  },
  {
    "compound": "COc1cc2c(cc1OCCCOC1=C=C=C(c3ccc4c(c3)c3cc(-c5ccc(OCCCOc6cc7c(cc6OC)C(=O)N6CCC[C@H]6C=N7)cc5)ccc3n4S(=O)(=O)c3ccc(C)cc3)C=C1)N=C[C@@H]1CCCN1C2=O",
    "assigned.category": "inactive"
  },
  {
    "compound": "Nc1ccc(N=Nc2ccccc2)c(N)n1",
    "assigned.category": "inactive"
  },
  {
    "compound": "CNC(=O)c1c(NC(=O)c2cccc(C(F)(F)F)c2)sc2c1CCC(=O)C2",
    "assigned.category": "active"
  },
  {
    "compound": "O=C1c2ccccc2-c2c1c1ccc([N+](=O)[O-])cc1c(=O)n2CCNCCCNCCn1c2c(c3ccc([N+](=O)[O-])cc3c1=O)C(=O)c1ccccc1-2",
    "assigned.category": "active"
  },
  {
    "compound": "N#Cc1c2ccccc2c2n1-c1ccccc1OC(c1ccccc1)C2=O (stereo not drawn)",
    "assigned.category": "inactive"
  },
  {
    "compound": "O=CN1N=C(c2ccc(Nc3ccnc4cc(Cl)ccc34)cc2)CC1c1ccccc1 (stereo not drawn)",
    "assigned.category": "inactive"
  },
  {
    "compound": "O=C(Cn1c(=O)c(-c2ccccc2)nc2ccccc21)c1cccnc1",
    "assigned.category": "inactive"
  },
  {
    "compound": "O=[N+]([O-])c1cc(O)c(O)cc1-c1cn2ccsc2n1",
    "assigned.category": "inactive"
  },
  {
    "compound": "O=C(Nc1ccc(Cl)cc1)c1cc2c(cc1O)[nH]c1ccccc12",
    "assigned.category": "inactive"
  }
]
